- Test system: A549 cells
- method: Mammalian cell toxicity (MTT assay) and selectivity index
- Type: cell-based, Human
- measurement-parameters: MTT, 48 h incubation
A549 (CC50) strictly under 20 µg/mL means true; at 20 µg/mL or over means false.

stdin: Please state whether A549 (CC50) is below 20 µg/mL for O.O.O.O=C([O-])CCCCCCCCCC(=O)[O-].[Ag+].[Ag+].c1cnc2c(c1)ccc1cccnc12.c1cnc2c(c1)ccc1cccnc12.c1cnc2c(c1)ccc1cccnc12 [compound 18, [Ag2(phen)3(udda)].3H2O]
stdout: true

stdin: Please state whether A549 (CC50) is below 20 µg/mL for O.O.O.O.O=C1C(=O)c2cccnc2-c2ncccc21.O=C1C(=O)c2cccnc2-c2ncccc21.O=C1C(=O)c2cccnc2-c2ncccc21.[Cu+2].[O-][Cl+3]([O-])([O-])[O-].[O-][Cl+3]([O-])([O-])[O-] [compound 6, [Cu(phendione)3](ClO4)2.4H2O]
stdout: true

stdin: Please state whether A549 (CC50) is below 20 µg/mL for CCO.CCO.O=C([O-])c1ccc(C(=O)[O-])cc1.O=C([O-])c1ccc(C(=O)[O-])cc1.[Cu+2].[Cu+2].c1cnc2c(c1)ccc1cccnc12.c1cnc2c(c1)ccc1cccnc12.c1cnc2c(c1)ccc1cccnc12.c1cnc2c(c1)ccc1cccnc12 [compound 4]
stdout: true

stdin: Please state whether A549 (CC50) is below 20 µg/mL for CCO.O=C([O-])COCCOCCOCC(=O)[O-].[Ag+].[Ag+].c1cnc2c(c1)ccc1cccnc12.c1cnc2c(c1)ccc1cccnc12.c1cnc2c(c1)ccc1cccnc12.c1cnc2c(c1)ccc1cccnc12 [compound 16, [Ag2(3,6,9-tdda)(phen)4].EtOH]
stdout: true

stdin: Please state whether A549 (CC50) is below 20 µg/mL for CCO.O=C([O-])CCCCCCC(=O)[O-].[Cu+2].[Cu+2].[O-][Cl+3]([O-])([O-])[O-].[O-][Cl+3]([O-])([O-])[O-].c1cnc2c(c1)ccc1cccnc12.c1cnc2c(c1)ccc1cccnc12.c1cnc2c(c1)ccc1cccnc12.c1cnc2c(c1)ccc1cccnc12 [compound 5, [Cu2(oda)(phen)4](ClO4)2.2.76H2O.EtOH]
stdout: true

stdin: Please state whether A549 (CC50) is below 20 µg/mL for O.O.O.O.O.O.O=C([O-])CCCCCCC(=O)[O-].O=C([O-])CCCCCCC(=O)[O-].O=C([O-])CCCCCCC(=O)[O-].O=C([O-])CCCCCCC(=O)[O-].[Mn+2].[Mn+2].[Mn+2].[Mn+2].c1cnc2c(c1)ccc1cccnc12.c1cnc2c(c1)ccc1cccnc12.c1cnc2c(c1)ccc1cccnc12.c1cnc2c(c1)ccc1cccnc12.c1cnc2c(c1)ccc1cccnc12.c1cnc2c(c1)ccc1cccnc12.c1cnc2c(c1)ccc1cccnc12.c1cnc2c(c1)ccc1cccnc12 [compound 13]
stdout: false

stdin: Please state whether A549 (CC50) is below 20 µg/mL for O=C1C(=O)c2cccnc2-c2ncccc21.O=C1C(=O)c2cccnc2-c2ncccc21.[Ag+].[O-][Cl+3]([O-])([O-])[O-] [compound 15, [Ag(phendione)2]ClO4]
stdout: true

stdin: Please state whether A549 (CC50) is below 20 µg/mL for O.O.O.O.O=C([O-])c1cccc(C(=O)[O-])c1.O=C([O-])c1cccc(C(=O)[O-])c1.[Mn+2].[Mn+2].c1cnc2c(c1)ccc1cccnc12.c1cnc2c(c1)ccc1cccnc12.c1cnc2c(c1)ccc1cccnc12 [compound 10, [Mn2(isoph)2(phen)3].4H2O]
stdout: false

stdin: Please state whether A549 (CC50) is below 20 µg/mL for [Cl][Mn][Cl] [MnCl2, reference compound]
stdout: false

stdin: Please state whether A549 (CC50) is below 20 µg/mL for [Ag+].[O-][Cl+3]([O-])([O-])[O-].c1cnc2c(c1)ccc1cccnc12.c1cnc2c(c1)ccc1cccnc12 [compound 17, [Ag(phen)2]ClO4]
stdout: true

stdin: Please state whether A549 (CC50) is below 20 µg/mL for CCO.O.O.O.O.O.O.O=C([O-])c1cccc(C(=O)[O-])c1.[Cu+2].c1cnc2c(c1)ccc1cccnc12.c1cnc2c(c1)ccc1cccnc12 [compound 3, [Cu(isoph)(phen)2].6H2O.EtOH]
stdout: true

stdin: Please state whether A549 (CC50) is below 20 µg/mL for [Cl][Cu][Cl] [CuCl2, reference compound]
stdout: false

stdin: Please state whether A549 (CC50) is below 20 µg/mL for O=[N+]([O-])[O-].[Ag+] [AgNO3, reference compound]
stdout: true

stdin: Please state whether A549 (CC50) is below 20 µg/mL for O.O.O.O.O.O=C([O-])c1ccc(C(=O)[O-])cc1.[Mn+2].c1cnc2c(c1)ccc1cccnc12.c1cnc2c(c1)ccc1cccnc12 [compound 12, [Mn(tereph)(phen)2].5H2O]
stdout: false

stdin: Please state whether A549 (CC50) is below 20 µg/mL for O.O.O.O.O.O.O.O.O.O.O.O.O.O.O.O.O=C([O-])c1cccc(C(=O)[O-])c1.O=C([O-])c1cccc(C(=O)[O-])c1.[Mn+2].[Mn+2].c1cnc2c(c1)ccc1cccnc12.c1cnc2c(c1)ccc1cccnc12.c1cnc2c(c1)ccc1cccnc12.c1cnc2c(c1)ccc1cccnc12.c1cnc2c(c1)ccc1cccnc12 [compound 11, {[Mn(phen)2(H2O)2]}2(isoph)2(phen).12H2O]
stdout: false

* * *

Kindly state MIC for each of the entries shown.
- System: C. haemulonii complex
- method: Planktonic growth, overall across all nine isolates
- Format: cell-based, Candida haemulonii complex
- measurement-parameters: geometric mean across all nine strains, in μM; read-out: Overall GM-MIC
- Text: Three clinical isolates of each species that form the C. haemulonii complex were used in this study: C. haemulonii (LIPCh4 from finger nail, LIPCh7 from toe nail, and LIPCh12 from blood), C. duobushaemulonii (LIPCh1 from finger nail, LIPCh6 from toe nail, and LIPCh8 from blood) and C. haemulonii var. vulnera (LIPCh5 from toe nail, LIPCh9 from urine, and LIPCh11 from blood) (Ramos et al., [2015]). […]

stdin: Name the recorded MIC of the compound listed here: CCO.CCO.O=C([O-])c1ccc(C(=O)[O-])cc1.O=C([O-])c1ccc(C(=O)[O-])cc1.[Cu+2].[Cu+2].c1cnc2c(c1)ccc1cccnc12.c1cnc2c(c1)ccc1cccnc12.c1cnc2c(c1)ccc1cccnc12.c1cnc2c(c1)ccc1cccnc12
stdout: > 21.92 µM

stdin: Name the recorded MIC of the compound listed here: CCO.O.O.O.O.O.O.O=C([O-])c1cccc(C(=O)[O-])c1.[Cu+2].c1cnc2c(c1)ccc1cccnc12.c1cnc2c(c1)ccc1cccnc12 [compound 3, [Cu(isoph)(phen)2].6H2O.EtOH]
stdout: 9.21 µM

stdin: Name the recorded MIC of the compound listed here: O.O.O.O.O=C1C(=O)c2cccnc2-c2ncccc21.O=C1C(=O)c2cccnc2-c2ncccc21.O=C1C(=O)c2cccnc2-c2ncccc21.[Cu+2].[O-][Cl+3]([O-])([O-])[O-].[O-][Cl+3]([O-])([O-])[O-] [compound 6, [Cu(phendione)3](ClO4)2.4H2O]
stdout: 9.65 µM

stdin: Name the recorded MIC of the compound listed here: O.O.O.O.O=C([O-])c1cccc(C(=O)[O-])c1.O=C([O-])c1cccc(C(=O)[O-])c1.[Mn+2].[Mn+2].c1cnc2c(c1)ccc1cccnc12.c1cnc2c(c1)ccc1cccnc12.c1cnc2c(c1)ccc1cccnc12 [compound 10, [Mn2(isoph)2(phen)3].4H2O]
stdout: 5.15 µM

* * *

- System: Candida duobushaemulonii
- method: Planktonic growth, broth microdilution (CLSI M27-A3), MIC
- Assay type: cell-based
- measurement-parameters: isolate LIP Ch1; planktonic, 48 h, 37°C
Kindly state MIC for each of the entries shown.

stdin: Name the recorded MIC of the compound listed here: [Cl][Cu][Cl] [CuCl2, reference compound]
stdout: >32 µg/mL

stdin: Name the recorded MIC of the compound listed here: CCO.CCO.O.O.O.O=C([O-])c1ccccc1C(=O)[O-].[Cu+2].c1cnc2c(c1)ccc1cccnc12.c1cnc2c(c1)ccc1cccnc12 [compound 2, [Cu(ph)(phen)2].3H2O.2EtOH]
stdout: >32 µg/mL

stdin: Name the recorded MIC of the compound listed here: CC[C@H](C)C[C@H](C)CCCCCCCCC(=O)N[C@H]1C[C@@H](O)[C@@H](NCCN)NC(=O)[C@@H]2[C@@H](O)CCN2C(=O)[C@H]([C@H](O)CCN)NC(=O)[C@H]([C@H](O)[C@@H](O)c2ccc(O)cc2)NC(=O)[C@@H]2C[C@@H](O)CN2C(=O)[C@H]([C@@H](C)O)NC1=O [Caspofungin, reference compound]
stdout: 0.125 µg/mL

* * *

Kindly state GM-bMIC for each of the entries shown.
- System: Candida haemulonii
- method: Biofilm-growing cells, XTT assay, bMIC
- Type: cell-based
- measurement-parameters: geometric mean, C. haemulonii isolates; values marked * do not include LIP Ch4 (>512)
Give a bare numeral; the unit mg/L is implied.

stdin: Name the recorded GM-bMIC of the compound listed here: O.O.O.O.O.O=C([O-])c1ccccc1C(=O)[O-].[Mn+2].c1cnc2c(c1)ccc1cccnc12.c1cnc2c(c1)ccc1cccnc12 [compound 9, [Mn(ph)(phen)2(H2O)].4H2O]
stdout: 25.40

stdin: Name the recorded GM-bMIC of the compound listed here: [Ag+].[O-][Cl+3]([O-])([O-])[O-].c1cnc2c(c1)ccc1cccnc12.c1cnc2c(c1)ccc1cccnc12 [compound 17, [Ag(phen)2]ClO4]
stdout: 20.16
